- System: Kelly Neuroblastoma cells
- test_summary: ATPlite Luminescence viability assay, Kelly neuroblastoma cells, 72 h
- Type: cell-based
- details: Kelly Neuroblastoma cells, ATPlite, class symbols, read-out: IC50 of inventive bispecific compounds
experimental_readout: IC50

INSERT INTO assay_data (compound, tested_on, result) VALUES
  ('Cc1noc(C)c1-c1ccn2c(NC3CCCCC3)c(CCc3ccc(NC(=O)CCCCCCCNc4cccc5c4C(=O)N(C4CCC(=O)NC4=O)C5=O)cc3)nc2c1 (centres unmarked)', 'Kelly Neuroblastoma cells', '> 10 µM'),
  ('Cc1noc(C)c1-c1ccc2c(c1)nc(CCc1ccc(NC(=O)CCCCCCCCCCCNc3cccc4c3C(=O)N(C3CCC(=O)NC3=O)C4=O)cc1)n2CCN1CCOCC1 (centres unmarked)', 'Kelly Neuroblastoma cells', '> 10 µM'),
  ('COc1ccc(CCc2nc3cc(-c4c(C)noc4C)ccc3n2C[C@H](C)N2CCN(C(=O)CCOCCOCCOCCNc3ccc4c(c3)C(=O)N(C3CCC(=O)NC3=O)C4=O)CC2)cc1Cl (some centres unmarked)', 'Kelly Neuroblastoma cells', '> 10 µM'),
  ('Cc1noc(C)c1-c1ccn2c(NC3CCCCC3)c(CCc3ccc(NC(=O)CCCCCCCCCCCNc4cccc5c4C(=O)N(C4CCC(=O)NC4=O)C5=O)cc3)nc2c1 (centres unmarked)', 'Kelly Neuroblastoma cells', '> 10 µM'),
  ('Cc1noc(C)c1-c1ccc2nc(-c3ccc(N4CCN(C(=O)CCOCCOCCOCCOCCOCCOCCNc5cccc6c5C(=O)N(C5CCC(=O)NC5=O)C6=O)CC4)cc3)c(NC3CCCCC3)n2c1 (centres unmarked)', 'Kelly Neuroblastoma cells', '0.1 to 1 µM');
